B1: 1ZHC (parent)
chain: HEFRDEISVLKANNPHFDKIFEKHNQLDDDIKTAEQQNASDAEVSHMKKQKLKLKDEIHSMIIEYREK

# Variants of: B1
# ASSAY DETAILS: folding stability dG (cDNA display proteolysis); higher = more stable
# STATED CONDITIONS: PBS, room temperature
Quick rule for you: folding stability dG at 0.4 kcal/mol or higher means Met, lower means Not met.

Task item: Could you tell me if the measured folding stability dG of HEFRDEISVLKANNPHFDKIFEKHNQLDDDIKTAEQQYASDAEVSHMKKQKLKLKDEIHSMIIEYREK [N38Y] reaches 0.4 kcal/mol or more?
Reply: Not met

Task item: Could you tell me if the measured folding stability dG of HIFRDEISVLKANNPHFDKIFEKHNQLDDDIKTAEQQNASDAEVSHMKKQKLKLKDEIHSMIIEYREK [E2I] reaches 0.4 kcal/mol or more?
Reply: Met

Task item: Could you tell me if the measured folding stability dG of HEFRDEISVLKANNPHFDKIFEKHNQLDDDIKTAEQQNASDAEVSHMKKQKLKLKDEIHSMIIELREK [Y65L] reaches 0.4 kcal/mol or more?
Reply: Not met

Task item: Could you tell me if the measured folding stability dG of HEFRDEISVLKANNPHFDKIFEKHNQLDDDIKTAEQQNASDAEVSHMKKQKLKLKDEIHSMILEYREK [I63L] reaches 0.4 kcal/mol or more?
Reply: Met

Task item: Could you tell me if the measured folding stability dG of HEFRDEISVLKANNPFFDKIFEKHNQLDDDIKTAEQQNASDAEVSHMKKQKLKLKDEIHSMIIEYREK [H16F] reaches 0.4 kcal/mol or more?
Reply: Not met

Task item: Could you tell me if the measured folding stability dG of HEFRDEISVLKANNPHFDKIFEKHNQLDDDIKTAEQQNASDAEVSHMKKQKLKLKDEIHSMIEEYREK [I63E] reaches 0.4 kcal/mol or more?
Reply: Met

Task item: Could you tell me if the measured folding stability dG of HEFRDEISVLKANNPHFDKIFEKHNQLDDDIKDAEQQNASDAEVSHMKKQKLKLKDEIHSMIIEYREK [T33D] reaches 0.4 kcal/mol or more?
Reply: Met

Task item: Could you tell me if the measured folding stability dG of HEFRDEISVLKANNPHFDKIFNKHNQLDDDIKTAEQQNASDAEVSHMKKQKLKLKDEIHSMIIEYREK [E22N] reaches 0.4 kcal/mol or more?
Reply: Met

Task item: Could you tell me if the measured folding stability dG of HEFRDEISVLKANNPHFWKIFEKHNQLDDDIKTAEQQNASDAEVSHMKKQKLKLKDEIHSMIIEYREK [D18W] reaches 0.4 kcal/mol or more?
Reply: Met

Task item: Could you tell me if the measured folding stability dG of HEFRDEISVLKANNPHFDKIFEKHNQLDDDIKTAEQQNASDAEVLHMKKQKLKLKDEIHSMIIEYREK [S45L] reaches 0.4 kcal/mol or more?
Reply: Met

Task item: Could you tell me if the measured folding stability dG of HEFRDEISVLKANNPHFDKIFEKHNQLDDDIKTAEQQNACDAEVSHMKKQKLKLKDEIHSMIIEYREK [S40C] reaches 0.4 kcal/mol or more?
Reply: Not met

Task item: Could you tell me if the measured folding stability dG of HEFRDEISVLKANNPHFDKIFEKKNQLDDDIKTAEQQNASDAEVSHMKKQKLKLKDEIHSMIIEYREK [H24K] reaches 0.4 kcal/mol or more?
Reply: Not met

Task item: Could you tell me if the measured folding stability dG of HEFRDEISVLKANNPHFDKIFEKHNQLDDDIKTAEQQNASDAEVMHMKKQKLKLKDEIHSMIIEYREK [S45M] reaches 0.4 kcal/mol or more?
Reply: Met

Task item: Could you tell me if the measured folding stability dG of HEFRDEISVLKANNPHFDKIFEKHNQLDDDIKTAEQQNASDAEVSHMKKQILKLKDEIHSMIIEYREK [K51I] reaches 0.4 kcal/mol or more?
Reply: Met
